target: Glucose-dependent insulinotropic receptor (Homo sapiens); assay: Agonist activity at human GPR119 transfected in CHO cells assessed as cAMP accumulation after 2 hrs by luciferase reporter gene assay; type: functional, cell-based
Sequence (Q8TDV5 whole entry): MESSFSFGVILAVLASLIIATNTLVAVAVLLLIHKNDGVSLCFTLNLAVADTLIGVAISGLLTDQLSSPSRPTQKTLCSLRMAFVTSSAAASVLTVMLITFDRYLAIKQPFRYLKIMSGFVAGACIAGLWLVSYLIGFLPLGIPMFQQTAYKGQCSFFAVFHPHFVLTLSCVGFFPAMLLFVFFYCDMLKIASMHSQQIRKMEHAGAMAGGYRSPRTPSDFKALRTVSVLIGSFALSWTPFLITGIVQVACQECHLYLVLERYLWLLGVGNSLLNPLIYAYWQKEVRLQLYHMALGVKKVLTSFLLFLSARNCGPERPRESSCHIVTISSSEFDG
pEC50: −log10 of the molar value.
Everything with pEC50 lower than 7 is false (0); everything else, including exactly 7, is true (1).

>>> category_label("CC(C)c1noc(N2CCC(Oc3cc(N4CCc5cc(S(C)(=O)=O)ccc54)ncn3)CC2)n1")
"true (1)"
>>> category_label("CC(C)(C)OC(=O)N1CCC(CCNC(=O)N2CCc3cc(S(C)(=O)=O)ccc32)CC1")
"false (0)"
>>> category_label("CC(CC1CCN(C(=O)OC(C)(C)C)CC1)OC(=O)N1CCc2cc(S(C)(=O)=O)ccc21 (racemic)")
"false (0)"
>>> category_label("CC(COC(=O)N1CCc2cc(S(C)(=O)=O)ccc21)C1CCN(C(=O)OC(C)(C)C)CC1 (racemic)")
"true (1)"
>>> category_label("CC(C)OC(=O)N1CCC(Oc2cccc(N3CCc4cc(S(C)(=O)=O)ccc43)c2)CC1")
"false (0)"
>>> category_label("CC(C)(C)OC(=O)N1CCC(CCCCN2CCc3cc(S(C)(=O)=O)ccc32)CC1")
"false (0)"
>>> category_label("CC(C)(C)OC(=O)N1CCC(CCOC(=O)N2CCc3cc(S(C)(=O)=O)cc(F)c32)CC1")
"true (1)"
>>> category_label("CC(C)(C)OC(=O)N1CCC(C(O)COC(=O)N2CCc3cc(S(C)(=O)=O)ccc32)CC1 (racemic)")
"false (0)"
>>> category_label("Cc1cc(S(C)(=O)=O)cc2c1N(C(=O)OCCC1CCN(C(=O)OC(C)(C)C)CC1)CC2")
"true (1)"
>>> category_label("CC(C)(C)OC(=O)N1CCC(CCOC(=O)N2CCc3c2ccc(S(C)(=O)=O)c3F)CC1")
"true (1)"
>>> category_label("CC(C)(C)OC(=O)N1CCC(CCOC(=O)N2CCc3c2ccc(S(C)(=O)=O)c3Cl)CC1")
"false (0)"
>>> category_label("CC(C)OC(=O)N1CCC(Oc2cc(N3CCc4cc(S(C)(=O)=O)ccc43)ncn2)CC1")
"true (1)"
>>> category_label("CC(C)OC(=O)N1CCC(Oc2ncnc(N3CCc4cc(S(C)(=O)=O)ccc43)n2)CC1")
"false (0)"
>>> category_label("CC(COC(=O)N1CCc2cc(S(C)(=O)=O)cc(F)c21)C1CCN(C(=O)OC(C)(C)C)CC1 (racemic)")
"true (1)"
